Could you please report measured % Metabolized at 30 min Incubation with Human Liver Fractions/Enzymes rCYP2C19 for the items listed next?
study-target: rCYP2C19 (Homo sapiens)
Sequence (P33261 whole entry): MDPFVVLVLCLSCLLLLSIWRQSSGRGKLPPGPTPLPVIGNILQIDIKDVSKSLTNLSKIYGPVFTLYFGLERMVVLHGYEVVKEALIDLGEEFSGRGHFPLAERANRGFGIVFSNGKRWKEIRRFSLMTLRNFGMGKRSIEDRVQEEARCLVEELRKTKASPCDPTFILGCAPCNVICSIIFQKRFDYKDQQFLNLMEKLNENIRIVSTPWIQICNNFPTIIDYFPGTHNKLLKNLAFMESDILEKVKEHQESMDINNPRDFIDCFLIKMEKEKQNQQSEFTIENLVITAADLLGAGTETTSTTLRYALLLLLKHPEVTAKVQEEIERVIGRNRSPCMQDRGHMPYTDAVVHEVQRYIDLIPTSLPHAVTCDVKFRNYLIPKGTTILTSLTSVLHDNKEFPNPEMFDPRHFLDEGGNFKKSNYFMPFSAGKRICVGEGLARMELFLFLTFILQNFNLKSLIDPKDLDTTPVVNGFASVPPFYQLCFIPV
protocol-text: Metabolic stability / reaction phenotyping with recombinant human CYP2C19
details: 1 µM test compound; 100 pmol/mL; 30 min
Please make sure the unit comes right after the number.

Consider the worked cases shown below.
# compound, data-value
data = [
    ("CC(C)(O)c1ccccc1CC[C@@H](SCC1(CC(=O)O)CC1)c1cccc(/C=C/c2ccc3ccc(Cl)cc3n2)c1 [Montelukast, montelukast, reference compound]", "0.00%"),
    ("CCCSc1ccc2nc(NC(=O)OC)[nH]c2c1 [Albendazole, albendazole, reference compound]", "95.76%"),
    ("CNC(=O)O/N=C/C(C)(C)SC [Aldicarb, aldicarb]", "6.93%"),
    ("CNC(=O)O/N=C/C(C)(C)[S+](C)[O-] (stereo not shown) [Aldicarb sulfoxide, aldicarb sulfoxide]", "0.85%"),
    ("O=C1Cc2cc(CCN3CCN(c4nsc5ccccc45)CC3)c(Cl)cc2N1 [Ziprasidone, ziprasidone, reference compound]", "21.17%"),
]

Please supply % Metabolized at 30 min Incubation with Human Liver Fractions/Enzymes rCYP2C19 for each of the following items, keeping them in order.
1. CSc1nc2cc(Cl)c(Oc3cccc(Cl)c3Cl)cc2[nH]1 [Triclabendazole, reference compound]
2. CNC(=O)Oc1cc(C)c(SC)c(C)c1 [Methiocarb, methiocarb]

94.55%
19.42%
